- protocol-summary: Cytotoxicity against african green monkey Vero cells infected with Coxsackievirus B3 assessed as growth inhibition after 48 hrs by Reed-Muench analysis
- Type: cell-based
- run-conditions: chlorocebus sabaeus, read-out: TC50
Rule: measured CC50 at 48 h below 800 µM gets true; anything equal to or greater than 800 µM gets false.

>>> class_label("COc1ccc(CC[n+]2ccc3c(OC)c(OC)c(OC)cc3c2)cc1")
"true"
>>> class_label("COc1cc2cc[n+](CCc3ccccc3C)cc2cc1OC")
"false"
>>> class_label("COc1cc2cc[n+](CCc3ccccc3)cc2cc1OC")
"false"
>>> class_label("COc1ccc2cc[n+](CCc3ccccc3C)cc2c1O")
"true"
>>> class_label("COc1cc2c[n+](CCc3ccccc3)ccc2c(OC)c1OC")
"false"
>>> class_label("COc1ccc(CC[n+]2ccc3ccc(OC)c(O)c3c2)cc1")
"true"
>>> class_label("COc1ccc2cc[n+](CCc3ccccc3)cc2c1OC")
"true"
>>> class_label("Oc1ccc2cc[n+](CCc3ccccc3)cc2c1")
"true"
>>> class_label("Oc1ccc2cc[n+](CCc3ccc(F)cc3)cc2c1")
"false"
>>> class_label("Oc1ccc2cc[n+](CCc3cccc(Cl)c3)cc2c1")
"true"
>>> class_label("COc1cc2cc[n+](CCc3ccc(F)cc3)cc2cc1OC")
"true"
